- system_under_test: T1, human plasma IgG1 (human, UniProt P01857-1 1-330 = IgG part)
- T1 construct: Plasma-derived IgG isoform, bought
- procedure_details: Oregon Green peptide, pH 4.0 - salt
Below is a list of entries, each paired with its recorded Kd value.
assay_metric: Kd (nM)

binder="AGAATCSTSYWYYQWFCTDSPGPEGGGK (N-terminal acetyl (Ac-); C-terminal amide (-NH2); Oregon Green labeled, Synthesised by BACHEM, Oregon Green labeled, HPLC purified) [DX398]" unit=nM reading=2400
binder="AGTYWCTFWELPCDPAPGPEGGGK (N-terminal acetyl (Ac-); C-terminal amide (-NH2); Oregon Green labeled, Synthesised by BACHEM, Oregon Green labeled, HPLC purified) [DX404]" unit=nM reading=1500
